Measured ALP activity values are reported for all entries that follow.
- system name: Alkaline phosphatase, tissue-nonspecific isozyme (Mus musculus)
- Sequence (whole entry): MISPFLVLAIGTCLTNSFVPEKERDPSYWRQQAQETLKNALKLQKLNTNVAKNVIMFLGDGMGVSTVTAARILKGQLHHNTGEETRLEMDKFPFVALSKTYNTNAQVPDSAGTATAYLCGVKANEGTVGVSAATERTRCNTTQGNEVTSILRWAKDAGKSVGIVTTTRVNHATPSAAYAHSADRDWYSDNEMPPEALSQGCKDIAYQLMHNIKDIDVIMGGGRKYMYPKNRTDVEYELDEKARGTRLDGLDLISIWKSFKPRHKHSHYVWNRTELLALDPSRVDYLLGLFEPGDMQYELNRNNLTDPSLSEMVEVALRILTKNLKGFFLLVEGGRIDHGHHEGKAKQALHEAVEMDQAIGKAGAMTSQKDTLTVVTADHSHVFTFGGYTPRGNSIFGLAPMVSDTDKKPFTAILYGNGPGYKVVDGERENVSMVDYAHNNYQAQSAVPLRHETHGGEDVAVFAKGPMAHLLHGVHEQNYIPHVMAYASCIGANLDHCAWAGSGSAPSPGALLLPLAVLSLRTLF
- test protocol: Alkaline phosphatase stimulatory activity of 10E-5 M compound in culture of MC3T3-E1 in presence of 3 ng/mL of BMP
Write the number on its own, no unit after it.

{"columns": ["compound", "ALP activity"],
 "data": [
  ["CCOP(=O)(Cc1ccc(NC(=O)C2Cc3cc(OC)c(OC)cc3C(=O)CS2)cc1)OCC (racemic)", 0.169],
  ["CCOP(=O)(Cc1ccc(NC(=O)C2Cc3cc4c(cc3C(=O)C(C)S2)OCO4)cc1)OCC (racemic)", 0.221],
  ["CCOP(=O)(Cc1ccc(NC(=O)[C@@H]2Cc3cc(OC)c(OC)cc3C(=O)CS2)cc1)OCC", 0.131],
  ["CCOP(=O)(Cc1ccc(NC(=O)[C@H]2Cc3cc4c(cc3C(=O)[C@H](C)S2)OCO4)cc1)OCC", 0.284],
  ["CCOP(=O)(Cc1ccc(NC(=O)[C@@H]2Cc3cc4c(cc3C(=O)[C@@H](C)S2)OCO4)cc1)OCC", 0.131]
]}

Consider the additional compound presented here.
What ALP activity appears in the records for this compound with Alkaline phosphatase, tissue-nonspecific isozyme (Mus musculus)? "CCOP(=O)(Cc1ccc(NC(=O)[C@H]2Cc3cc(OC)c(OC)cc3C(=O)CS2)cc1)OCC"
0.199

* * *

- system name: Alkaline phosphatase, tissue-nonspecific isozyme (Rattus norvegicus) (UniProt P08289)
- test protocol: Effect on alkaline phosphatase activity compared to control in culture of rat bone marrow stromal cells, 10E-5 M concentration
- Assay type: tissue-based
Please enter Yes where ALP activity is greater than or equal to 2, and No where it is lower.

Say whether "CCOP(=O)(Cc1ccc(NC(=O)[C@H]2Cc3cc4c(cc3C(=O)[C@H](C(C)C)S2)OCO4)cc1)OCC" shows ALP activity of 2 or more.
Yes

Say whether "CCOP(=O)(Cc1ccc(NC(=O)[C@H]2Cc3cc4c(cc3C(=O)CS2)OCO4)cc1)OCC" shows ALP activity of 2 or more.
Yes

Say whether "CCOP(=O)(Cc1ccc(NC(=O)[C@H]2Cc3cc(OC)c(OC)cc3C(=O)[C@H](C)S2)cc1)OCC" shows ALP activity of 2 or more.
Yes

Say whether "CCOP(=O)(Cc1ccc(NC(=O)[C@H]2Cc3cc(OC)c(OC)cc3C(=O)[C@H](CC)S2)cc1)OCC" shows ALP activity of 2 or more.
No

Say whether "CCOP(=O)(Cc1ccc(NC(=O)[C@H]2Cc3ccc(C)cc3C(=O)[C@H](C)S2)cc1)OCC" shows ALP activity of 2 or more.
No

Say whether "COP(=O)(Cc1ccc(NC(=O)[C@H]2Cc3cc4c(cc3C(=O)[C@H](C)S2)OCO4)cc1)OC" shows ALP activity of 2 or more.
Yes

Say whether "CCOP(=O)(Cc1ccc(NC(=O)[C@H]2Cc3ccc(C)cc3C(=O)CS2)cc1)OCC" shows ALP activity of 2 or more.
No

Say whether "CCOP(=O)(Cc1ccc(NC(=O)[C@H]2Cc3ccccc3C(=O)CS2)cc1)OCC" shows ALP activity of 2 or more.
No

Say whether "CCOP(=O)(Cc1ccc(NC(=O)[C@H]2Cc3cc4c(cc3C(=O)[C@H](CC)S2)OCO4)cc1)OCC" shows ALP activity of 2 or more.
Yes

Say whether "Cc1cc2c(cc1C)[C@H](C(=O)Nc1cnccn1)SCC2=O" shows ALP activity of 2 or more.
No

Say whether "CCOP(=O)(Cc1ccc(NC(=O)[C@@H]2SCC(=O)c3cc(C4CCCCC4)ccc32)cc1)OCC" shows ALP activity of 2 or more.
Yes

Say whether "CCOP(=O)(Cc1ccc(NC(=O)[C@@H]2SCC(=O)c3cc(-c4ccc(Cl)cc4)ccc32)cc1)OCC" shows ALP activity of 2 or more.
No

Say whether "CC(C)OP(=O)(Cc1ccc(NC(=O)[C@H]2Cc3cc4c(cc3C(=O)[C@H](C)S2)OCO4)cc1)OC(C)C" shows ALP activity of 2 or more.
Yes

Say whether "CCOP(=O)(Cc1ccc(NC(=O)[C@H]2Cc3ccc(C)cc3C(=O)[C@H](c3ccccc3)S2)cc1)OCC" shows ALP activity of 2 or more.
No

Say whether "COc1cc2c(cc1OC)C(=O)CS[C@@H](C(=O)Nc1ccc(CP3(=O)OCCCCO3)cc1)C2" shows ALP activity of 2 or more.
Yes

Say whether "CCOP(=O)(Cc1ccc(NC(=O)[C@@H]2S[C@@H](C)C(=O)c3cc4c(cc32)OCO4)cc1)OCC" shows ALP activity of 2 or more.
No

Say whether "O=C1CS[C@@H](C(=O)Nc2ccc(Cl)cc2)c2cc3c(cc21)CCC3" shows ALP activity of 2 or more.
No

* * *

- system name: Alkaline phosphatase, tissue-nonspecific isozyme (Rattus norvegicus)
- test protocol: Effect of 10E-5 M compound on alkaline phosphatase activity in culture of rat bone marrow stromal cells
- Assay type: tissue-based
Measured ALP activity values are reported for all entries that follow.
Write the number on its own, no unit after it.

Below are worked cases with known answers.
{"columns": ["compound", "ALP activity"],
 "data": [
  ["CCOP(=O)(Cc1ccc(NC(=O)C2Cc3cc(OC)c(OC)cc3C(=O)CS2)cc1)OCC (racemic)", 1910],
  ["CCOP(=O)(Cc1ccc(NC(=O)[C@H]2Cc3cc4c(cc3C(=O)[C@H](C)S2)OCO4)cc1)OCC", 1640],
  ["CCOP(=O)(Cc1ccc(NC(=O)C2Cc3cc4c(cc3C(=O)C(C)S2)OCO4)cc1)OCC (racemic)", 1210]
]}

# lookup: ALP activity of "CCOP(=O)(Cc1ccc(NC(=O)[C@@H]2Cc3cc(OC)c(OC)cc3C(=O)CS2)cc1)OCC"
770

# lookup: ALP activity of "CCOP(=O)(Cc1ccc(NC(=O)[C@@H]2Cc3cc4c(cc3C(=O)[C@@H](C)S2)OCO4)cc1)OCC"
566

* * *

Measured ALP activity values are reported for all entries that follow.
- system name: Alkaline phosphatase, tissue-nonspecific isozyme (Rattus norvegicus) (UniProt P08289)
- test protocol: Effect of 10E-7 M compound on alkaline phosphatase activity compared to control in culture of rat bone marrow stromal cells
Write the number on its own, no unit after it.

Below are worked cases with known answers.
{"columns": ["compound", "test value"],
 "data": [
  ["CCOP(=O)(CCc1ccc(NC(=O)C2SCC(=O)c3cc(C4CCCCC4)ccc32)cc1)OCC (stereo not given)", 1.5],
  ["CC(C)OP(=O)(Cc1ccc(NC(=O)C2SCC(=O)c3cc(C4CCCCC4)ccc32)cc1)OC(C)C (stereo not given)", 2],
  ["CCOP(=O)(OCC)c1ccc(NC(=O)C2SCC(=O)c3cc(C4CCCCC4)ccc32)cc1 (stereo not given)", 1.6]
]}

# lookup: ALP activity of COP(=O)(OC)c1ccc(NC(=O)C2SCC(=O)c3cc(C4CCCCC4)ccc32)cc1 (stereo not given)
1.5

# lookup: ALP activity of CCOP(=O)(Cc1ccccc1NC(=O)C1SCC(=O)c2cc(C3CCCCC3)ccc21)OCC (stereo not given)
1.5

* * *

- system name: Alkaline phosphatase, tissue-nonspecific isozyme (Rattus norvegicus) (UniProt P08289)
- Sequence (whole entry): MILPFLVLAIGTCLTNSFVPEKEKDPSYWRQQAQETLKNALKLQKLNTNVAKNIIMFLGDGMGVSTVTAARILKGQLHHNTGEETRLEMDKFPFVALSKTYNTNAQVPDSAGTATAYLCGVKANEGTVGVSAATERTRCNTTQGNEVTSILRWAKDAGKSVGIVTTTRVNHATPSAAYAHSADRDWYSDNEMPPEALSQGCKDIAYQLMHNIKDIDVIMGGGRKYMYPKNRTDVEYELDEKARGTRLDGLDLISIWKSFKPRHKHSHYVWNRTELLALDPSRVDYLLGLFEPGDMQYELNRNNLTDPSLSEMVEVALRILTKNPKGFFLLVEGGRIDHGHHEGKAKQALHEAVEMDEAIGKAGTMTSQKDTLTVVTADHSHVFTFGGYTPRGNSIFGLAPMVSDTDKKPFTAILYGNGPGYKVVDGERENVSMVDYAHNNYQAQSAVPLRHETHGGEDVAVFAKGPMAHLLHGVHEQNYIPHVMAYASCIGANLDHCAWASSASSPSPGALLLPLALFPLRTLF
- test protocol: Effect of 10E-7 M compound on alkaline phosphatase activity compared to control in culture of rat bone marrow stromal cells
quantity kind: ALP activity
Write the number on its own, no unit after it.

{"columns": ["compound", "system name", "quantity kind", "test value"],
 "data": [
  ["COP(=O)(Cc1ccc(NC(=O)C2SCC(=O)c3cc(C4CCCCC4)ccc32)cc1)OC (stereo not drawn)", "Alkaline phosphatase, tissue-nonspecific isozyme (Rattus norvegicus) (UniProt P08289)", "ALP activity", 1.7]
]}

# lookup: ALP activity of CCCCOP(=O)(Cc1ccc(NC(=O)C2SCC(=O)c3cc(C4CCCCC4)ccc32)cc1)OCCCC (stereo not drawn)
1.7

# lookup: ALP activity of CCCOP(=O)(OCCC)c1ccc(NC(=O)C2SCC(=O)c3cc(C4CCCCC4)ccc32)cc1 (stereo not drawn)
1.5
